Test: AUCinfinity in CD1 mouse at 5 mg/kg, ip
Format: ADME, organism-based
Set-up: dose 5 mg/kg, route ip
Settings: in vivo
assay metric: AUC(0-inf) (ng·h/mL)

> print(dat)
                               smiles.entry  assay.metric  display.unit  quantitative.result
1  COc1cc2ccccc2cc1C(=O)NC(=S)Nc1ccc(-c2nnco2)cc1    AUC(0-inf)       ng·h/mL                34100
2  COc1cc2ccccc2cc1C(=O)NC(=S)Nc1ccc(-c2ncc[nH]2)cc1    AUC(0-inf)       ng·h/mL                15900
